assay: passive permeability, PAMPA, ADME assay (AID 1508612); conditions: pH 7.4, 30.0 min, 50.0 µM
measurement.name: Papp (×10⁻⁶ cm/s)

INSERT INTO measurements (molecule, measurement_name, readout_qualifier, measured) VALUES
  ('COc1cccc(CNc2ccc(S(=O)(=O)Nc3ncccn3)cc2)c1O', 'Papp', '=', 31.5),
  ('Cn1c(C(=O)NCCc2ccccn2)nc2nc(-c3ccccc3)c(Cl)cc21', 'Papp', '>', 1000),
  ('CCN(CC)C(=O)c1ccc(O)c(OC)c1', 'Papp', '=', 482),
  ('Cc1ccc(NC(=O)c2ccncc2NS(=O)(=O)c2ccc(C)cc2)cc1', 'Papp', '=', 245),
  ('Cc1noc(C)c1-c1ccc2ncnc(NC(C)c3ccccc3)c2c1 (stereo not given)', 'Papp', '>', 1000),
  ('CC(=O)Nc1ccc(C(=O)Nc2ccccc2N)cc1', 'Papp', '<', 1),
  ('Fc1cc(Nc2nc(-c3ccncc3)nc3ccccc23)ccc1N1CCCC1', 'Papp', '=', 110),
  ('CC(=O)N1CCN(c2ccc(OCc3nn(C)c(C)c3-c3cccc4c(CCCOc5cc(C)c(Cl)c(C)c5)c(C(=O)O)n(Cc5cccnc5)c34)cc2)CC1', 'Papp', '=', 370),
  ('CC(C)(C)c1ccc(-c2csc(N3CCC(C(N)=O)CC3)n2)cc1', 'Papp', '=', 370),
  ('CCN(CC)CCCNC(=O)c1oc2c(c1C)-c1nn(Cc3ccc(Cl)cc3)cc1CC2', 'Papp', '>', 1000);

* * *

test: passive permeability, PAMPA, ADME assay (AID 1508612); details: pH 7.4, 30.0 min, 50.0 µM
measurement.name: Papp (×10⁻⁶ cm/s)

INSERT INTO assay_data (molecule, measurement_name, readout_qualifier, measured) VALUES
  ('O=C(c1ccc2c(c1)ncn2-c1cccc(C(F)(F)F)c1)N1CCCCC1', 'Papp', '>', 1000),
  ('Cc1ccc(-n2nc(C)c3c(-c4ccc(O)c(O)c4)c(C#N)c(N)nc32)cc1C', 'Papp', '=', 187),
  ('CCOC(=O)c1ccnc(CNCC(=O)N(CC)CCN(C)C)c1', 'Papp', '=', 40.4),
  ('c1cc(-c2cc(-c3ccncc3)c3cncn3c2)c2cc[nH]c2c1', 'Papp', '=', 236),
  ('Nc1ncnc2c1ncn2[C@H]1O[C@@H](CO)[C@@H](O)[C@H]1N', 'Papp', '=', 2.99),
  ('Cc1ccc(-c2cc(C(=O)NCc3ccc(S(N)(=O)=O)cc3)c3ccccc3n2)cc1C', 'Papp', '=', 71),
  ('COCCNCc1ccc(-c2cc3nccc(Oc4ccc(NC(=S)NC(=O)Cc5ccc(F)cc5)cc4F)c3s2)nc1', 'Papp', '=', 361),
  ('CCOc1ccc(N2C(=O)c3n[nH]c(-c4cccs4)c3C2c2cccc(F)c2)cc1 (stereo unspecified)', 'Papp', '=', 82.4),
  ('Cc1cnc(-c2ccccc2C(F)F)nc1NCC1CN(c2cnccn2)C1', 'Papp', '>', 1000),
  ('C#CCNC(=O)c1nc(-c2ccc([S+](C)(=O)[O-])cc2)c2cnccn12', 'Papp', '<', 1),
  ('CCc1[nH]c2ccc(CNC(=O)Cc3cnc4c(C)cccn34)cc2c1C', 'Papp', '=', 405),
  ('COCCNc1ncnc2onc(-c3ccc(F)cc3)c12', 'Papp', '=', 458),
  ('Cc1nn2c(c1-c1ccccc1-c1ccccc1)N(Cc1ccc(O)cc1)CCC2', 'Papp', '=', 1.8),
  ('CN(C)CC(=O)NC1CCCc2c1cnn2-c1ccc(F)cc1F (stereo unspecified)', 'Papp', '=', 412),
  ('NC(CO)(CO)CCc1ccc(Sc2cccc(OCc3ccccc3)c2)cc1Cl', 'Papp', '=', 210),
  ('Cc1nc(-c2ccccc2)cc([C@H]2CN3CC[C@H]2C[C@@H]3CNC2CCOCC2)n1', 'Papp', '=', 369),
  ('CCCc1cc(=O)oc2c3c(c4c(c12)OC(C)(C)C=C4)OC(C)C(C)C3O (stereo unspecified)', 'Papp', '>', 1000),
  ('COc1cc2c(c(OC)c1OC)-c1ccc(SC)c(=O)cc1C(N)CC2 (stereo unspecified)', 'Papp', '>', 1000),
  ('CC[C@H](NC(=O)c1c(O)c(-c2ccccc2)nc2ccccc12)c1ccccc1', 'Papp', '=', 298),
  ('COc1cccc(NC(=S)N2CCN(c3cccc(C(F)(F)F)c3)CC2)n1', 'Papp', '=', 735),
  ('Cc1ccccc1-c1nc(NCc2cccs2)c2ccccc2n1', 'Papp', '=', 406);

* * *

Examples of compounds with documented Papp follow.
assay: passive permeability, PAMPA, ADME assay (AID 1508612); conditions: pH 7.4, 30.0 min, 50.0 µM
measurement.name: Papp (×10⁻⁶ cm/s)

INSERT INTO assay_data (compound, readout_qualifier, measured) VALUES
  ('NC(=O)C1CCN(c2ncc(-c3cccc(N4CCCC4)c3)s2)CC1', '=', 95.6),
  ('Cc1cccc(-n2c(C)cc(C=C(C#N)C#N)c2C)c1', '=', 43),
  ('Cn1nnnc1Sc1ncnc2scc(Br)c12', '=', 177),
  ('Cc1ccnc(NC(=S)N2CCN(c3ccc(Cl)c(Cl)c3)CC2)c1', '>', 1000),
  ('Cc1ccc(C)c(CN2CCC(CNC(=O)Nc3ccc(Br)cc3F)CC2)c1', '>', 1000),
  ('CC(C)C(=O)N1CCc2ccc(OCc3nc(C(=O)N4CCCC4)co3)cc2C1c1cccc(F)c1 (configuration not stated)', '=', 188),
  ('Cc1cccc(C)c1Nc1c(-c2cccs2)nc2ncccn12', '=', 969),
  ('CCOc1ccc(CCNC(=O)c2cc3sccc3n2C)cc1OCC', '>', 1000),
  ('NC(=O)c1ccc(-c2ncc3cnc(-c4cccc(F)c4)cn23)cc1', '=', 480),
  ('Cc1ccccc1C(=O)NC1CCN(c2ccc3nnc(C4CC4)n3n2)CC1', '=', 97.8),
  ('COc1ccccc1-c1[nH]nc2ncc(-c3ccc(C)cc3)nc12', '=', 76.2),
  ('CC(=O)NCCNC[C@@H]1C=C(C)[C@H](Cc2nnc(-c3ccccc3)o2)C[C@H]1C(C)C', '=', 624),
  ('CN(C)c1cccc(-c2cnc(Nc3cccnc3)c3c2CCO3)c1', '>', 1000),
  ('CCn1c(SCc2ccc(C#N)cc2)nnc1-c1cccc(Cl)c1', '=', 924),
  ('COc1cccc(CNc2ccc(C(=O)Nc3nccs3)cc2)c1O', '>', 1000),
  ('FC(F)(F)c1ccccc1-c1nc(NCc2cccs2)c2ccccc2n1', '>', 1000),
  ('NC(=O)C1CCN(c2nc(-c3cccc4ccccc34)cs2)CC1', '=', 641),
  ('O=C(c1ccccc1)N1CCN(c2nc(-c3ccc(Br)cc3)cs2)CC1', '=', 743),
  ('COc1ccccc1NC(=O)C1=C(C)Nc2c(C(=O)Nc3cccc(C)c3)cnn2C1c1ccccc1Cl (configuration not stated)', '=', 751),
  ('COc1cc2nccc(Oc3ccc(NC(=O)C4(C(=O)Nc5ccc(F)cc5)CC4)cc3)c2cc1OC', '=', 507),
  ('CCOC(=O)c1c(NC(=O)CN2CCCCC2)sc2c1CCN(C(=O)OCC)C2', '>', 1000),
  ('O=C(Nc1cccc(OC(F)(F)F)c1)c1cc(-c2ccc[nH]2)n[nH]1', '=', 26.6),
  ('NC(=O)C1CCN(c2nc(-c3ccccc3Cl)cs2)CC1', '=', 517),
  ('COc1ccc(-c2cn[nH]c2-c2ccc(OC)cc2)cc1', '>', 1000),
  ('Cc1nn2c(c1-c1ccccc1Oc1ccccc1)N(Cc1ccccc1O)CCC2', '>', 1000),
  ('CC(=O)c1c(C)[nH]c(C(=O)Nc2cccc([S+](=O)([O-])Nc3ccc(C#N)cc3)c2)c1C', '=', 178),
  ('CC(=O)Nc1cccc(-c2nc(-c3c(C)noc3C)cc3c2cc(-c2ccccc2)n3C)c1', '=', 455),
  ('CCCc1cc(C)[nH]c(=O)c1CNC(=O)c1cc(-c2ccnc(N3CCN(C)CC3)c2)cc2c1cnn2C(C)C', '=', 782),
  ('CCc1cccc(C)c1Nc1c(-c2ccc(N(C)C)cc2)nc2ncccn12', '>', 1000),
  ('O=C(Nc1nc(-c2ccccc2)cs1)c1ccncc1NS(=O)(=O)c1ccc2c(c1)CCC2', '>', 1000),
  ('O=C(NC1CC1)c1nc(-c2cccnc2)c2ccccn12', '=', 652),
  ('Cc1ccc(NS(=O)(=O)c2cccc(C(=O)O)c2)cc1S(=O)(=O)N1CCOCC1', '=', 23.4),
  ('CC(C)c1ccccc1-c1ncc(F)c(NC(C)(C)c2ccc(-n3ccnn3)cc2)n1', '=', 672),
  ('COc1ccc(-c2nc3c(c(SCC(=O)Nc4ccc(C(=O)O)cc4)n2)Cc2ccccc2O3)cc1', '=', 1.18),
  ('COCCNC(=O)[C@H]1C[C@H](Oc2ccccc2)CN1Cc1ccc2[nH]ccc2c1', '=', 961),
  ('CN(C(=O)c1cn2c(-c3ccc(C(F)(F)F)cc3)cnc2cn1)c1ccc(C#N)cc1', '=', 874),
  ('CCOC(=O)CCNc1cc(N2CCc3ccccc3CC2)nc(-c2ccccn2)n1', '>', 1000),
  ('COc1ccc(-c2csc(NC(=O)c3ccncc3NS(=O)(=O)c3ccc(C)cc3)n2)cc1', '>', 1000),
  ('COc1ccccc1-n1cnc2cc(C(=O)N3CCCCC3)ccc21', '=', 385),
  ('O=C(Nc1nc(-c2ccccc2)cs1)c1ccncc1NS(=O)(=O)c1ccc(N2CCCC2=O)cc1', '=', 314),
  ('O=C(CCS(=O)(=O)c1nc(-c2cccs2)cc(C(F)(F)F)n1)Nc1ccc(OC(F)(F)F)cc1', '=', 5.76),
  ('CC1=C(C(=O)Nc2nncs2)C(c2nn(C)cc2Cl)N=C(Nc2nc3ccccc3o2)N1 (configuration not stated)', '>', 1000);
